Source listed as patent US20260242478A1.

- system name: Anti-CD28 scFv (VH - linker 1 - VL) (biotinylated (site not stated))
- Sequence (scFv, as listed by the source): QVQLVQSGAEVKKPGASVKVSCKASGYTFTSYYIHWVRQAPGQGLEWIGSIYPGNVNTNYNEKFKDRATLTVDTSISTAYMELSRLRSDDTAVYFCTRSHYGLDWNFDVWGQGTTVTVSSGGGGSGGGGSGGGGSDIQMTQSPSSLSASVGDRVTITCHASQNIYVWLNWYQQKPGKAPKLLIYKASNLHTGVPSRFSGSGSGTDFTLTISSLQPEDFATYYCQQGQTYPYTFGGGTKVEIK
- method: phage binding ELISA on captured anti-CD28 scFv; wells pre-incubated with soluble CD28 protein (competitor)
Where no end group is shown, it is not given here.
readout type: CD28 scFv signal in presence of CD28
Could you keep your reply to the number by itself?

I am curious: what CD28 scFv signal in presence of CD28 value has been reported for IDWCPRYLWDECYN (peptide, not shown: large carriers) [Phage-48 clonal phage peptide] ?
0.153

Please answer likewise for MDWCPRTLWYLCFN (peptide, not shown: large carriers) [Phage-60 clonal phage peptide]
1.2

Another binder to look at: MDWCPRHLWVHCFN (peptide, not shown: large carriers) [Phage-42 clonal phage peptide]
0.254

And then MSWCPIHLWNECFN (peptide, not shown: large carriers, cysteine pairing not given here; also: displayed on phage by fusion to pIII, linker and pIII sequence not given here) [Phage-49 clonal phage peptide] , what is it?
0.284

Try this binder next: MHWCPIDLWAECYA (peptide, not shown: large carriers, cysteine pairing not given here; also: displayed on phage, fused to pIII) [Phage-46 clonal phage peptide]
0.225

What do we get for MDWCPIDMWDQCFN (peptide, not shown: large carriers) [Phage-40 clonal phage peptide] ?
0.297
